This listing pairs compounds with measured GI50.
- System: BT-549
- protocol: NCI tumour cell line growth inhibition, 48 h
Active and inactive are the calls of the source. Cut-off read from the data, not from the text of the source: active = GI50 up to about 1.1 µM and inactive = higher.
readout type: GI50

compound: Cc1cc(Br)cc(C)c1NC(=O)C(=O)C1C(=O)C(CC2C(=O)c3ccccc3C2=O)C(=O)CC1(C)C (centres undefined)
observed: > 100 µM (inactive)
//
compound: c1ccc(C(=NCCC2CNc3ccccc32)c2ccccc2)cc1 (centres undefined)
observed: > 100 µM (inactive)
//
compound: FC(F)(F)c1ccc2c(c1)nc(Cc1ccc(Cl)cc1)n2CC1CCCN2CCCCC12 (centres undefined)
observed: 11.5 µM (inactive)
//
compound: COC1CC(O[C@H]2CC[C@@]3(C)[C@@H](CC[C@]4(O)[C@@H]3CC[C@]3(C)[C@@H](C(C)=O)[C@H](OC(=O)CC(C)C)[C@@H](OC(=O)c5ccccc5)[C@@]34O)C2)OC(C)C1OC1CC(OC)C(OC2OC(C)C(O)C(OC)C2O)C(C)O1 (some centres undefined)
observed: > 25 µM (inactive)
//
compound: O=C1CC(c2ccccc2Cl)C2(C(=O)NC(=S)NC2=O)C(c2ccccc2Cl)C1 (centres undefined)
observed: 30.3 µM (inactive)
//
compound: CCc1nnc(CC)n1N1C(=O)CCC1=O
observed: > 100 µM (inactive)
//
compound: CN(C)CC1CCCCCCCCCC(CN(C)C)C1=O (centres undefined)
observed: 6.21 µM (inactive)
//
compound: O=C1c2ccccc2-c2nnc3c(c21)Cc1ccccc1C3
observed: > 10 µM (inactive)
//
compound: CCC12CC(c3ccccc3)C(C(=O)N1)C(=O)N2 (centres undefined)
observed: > 100 µM (inactive)

====

- Tested on: SR
- protocol: NCI tumour cell line growth inhibition, 48 h
Activity calls are given as the source filed them. Cut-off read from the data, not from the text of the source: active = GI50 up to about 1.1 µM and inactive = higher.
Labels: active, inactive

compound: NC(=O)c1ncn(Cc2ccccc2)c1CNC(N)=S
label class: inactive
--
compound: COc1ccc2c(c1)C(=O)C(=O)c1cc(O)c(OC)c(OC)c1-2
label class: active
--
compound: COc1cccc(NC(=O)C(C)(C)C)c1C=O
label class: inactive
--
compound: CN1CCCS/C1=C1/SC(=S)N(c2ccccc2)C1=O
label class: inactive
--
compound: O=C1CC2[C@@H](N3CCCC3)CCC(N1Cc1ccccc1)C2(O)O (stereo partly specified)
label class: inactive
--
compound: CCN(C)c1nc(N(C)CC)c2nc(N(C)CC)nc(N(C)CC)c2n1
label class: inactive

====

- System: HL-60
- protocol: NCI tumour cell line growth inhibition, 48 h
Calls of active or inactive are those of the source. Cut-off read from the data, not from the text of the source: active = GI50 up to about 1.1 µM and inactive = higher.
This listing pairs molecules with measured GI50.

molecule: CC1=C(C(=O)NCC(C)O)CC(C(=O)NCC(C)O)=C(C)N1 (stereo not given)
GI50: > 100 µM (inactive)

molecule: COc1ccc(N2C(=O)C3c4[nH]c5ccccc5c4C4CCCCCCCC4C3C2=O)cc1 (stereo not given)
GI50: > 10 µM (inactive)

molecule: N=C(N)N/N=C/c1c(-c2ccc(Cl)cc2)nc2n1CCS2
GI50: 31.1 µM (inactive)

molecule: COC1=CCC2=C(CCN(C(=O)C3CCC3)C2Cc2ccc(OC)c(O)c2)C1 (stereo not given)
GI50: 4.3 µM (inactive)

molecule: N#Cc1sc2c(c1O)c(=O)n(-c1ccccc1)c(=S)n2-c1ccccc1
GI50: > 100 µM (inactive)

molecule: O=[N+]([O-])c1ccc2c(c1)/C(=N/N=C1c3ccccc3Cc3ccccc31)c1cc([N+](=O)[O-])cc([N+](=O)[O-])c1-2
GI50: 2.26 µM (inactive)

molecule: COc1ccc2[nH]c3c(C)c4c(c(C)c3c2c1)CN(C)C=C4
GI50: 22.4 µM (inactive)

molecule: O=C(/C=C(\Nc1ccccc1O)c1ccc(Br)cc1)C(Cl)(Cl)Cl
GI50: 2.36 µM (inactive)

molecule: Cc1cccc(C)c1NC(=O)/C(Cl)=C(/Cl)C(=O)O
GI50: 2.63 µM (inactive)

molecule: CC1(C)SC2C(NC(=O)Cc3ccccc3)C(=O)N2C1C(=O)O (stereo not given)
GI50: > 100 µM (inactive)

====

- Test system: DU-145
- protocol: NCI tumour cell line growth inhibition, 48 h
Calls of active or inactive are those of the source. No stated cut-off is given here; in the data, active = GI50 up to about 1.1 µM and inactive = higher.
Labels: active, inactive

compound: O=C1CC2[C@@H](N3CCCC3)CCC(N1Cc1ccccc1)C2(O)O (stereo not given in full)
label class: inactive
//
compound: c1ccc2c(c1)nc1n2CNCC1
label class: inactive
//
compound: CC(=O)/C(=C/c1ccccc1F)C(=O)c1ccccc1
label class: inactive
//
compound: C/C(=C\c1ccccn1)c1ccccn1
label class: inactive
//
compound: CCC12CC(c3ccccc3)C(C(=O)N1)C(=O)N2 (stereo not given)
label class: inactive
//
compound: COc1cc2c(c(OC)c1OC)-c1ccc(OC)c(=O)cc1[C@@H](NC(C)=O)CC2
label class: active
//
compound: COC1CC(O[C@H]2CC[C@@]3(C)[C@@H](CC[C@]4(O)[C@@H]3CC[C@]3(C)[C@@H](C(C)=O)[C@H](OC(=O)CC(C)C)[C@@H](OC(=O)c5ccccc5)[C@@]34O)C2)OC(C)C1OC1CC(OC)C(OC2OC(C)C(O)C(OC)C2O)C(C)O1 (stereo not given in full)
label class: inactive
//
compound: C=C(C)C(=O)O[C@H]1C/C(CO)=C/CCC(=C)C(OC(C)=O)[C@H]2OC(=O)C(=C)[C@H]12 (stereo not given in full)
label class: inactive
//
compound: CCOC(=O)CO/N=C1/C(=C2/C(=O)Nc3ccccc32)Nc2ccccc21
label class: inactive
//
compound: Cc1cccc(C)c1NC(=O)/C(Cl)=C(/Cl)C(=O)O
label class: inactive
//
compound: C=CC/C=C/Cc1csc(C(C)(C)C(O)C/C=C/C(=C)CCNC(=O)OC)n1 (stereo not given)
label class: inactive
//
compound: COC(=O)[C@]1(c2cc3ccccc3[nH]2)CC2CN(CC(=O)N(C)OC)C1CC2(OC)OC (stereo not given in full)
label class: inactive
//
compound: O=c1c2ncn(C3CCCO3)c2n(-c2ccccc2)c(=S)n1-c1ccccc1 (stereo not given)
label class: inactive
//
compound: Cc1ccc(NC(=O)c2ccccc2C(=O)O)cc1C
label class: inactive
//
compound: COc1ccc(Cc2cc(Cc3ccc(OC)cc3)cc(Cc3ccc(OC)cc3)c2)cc1
label class: inactive
//
compound: CCc1nnc(CC)n1N1C(=O)CCC1=O
label class: inactive
//
compound: C/C(=N\Nc1ccc2ccccc2n1)c1ccccc1O
label class: inactive
//
compound: O=C1/C(=C\c2cccc(Oc3ccccc3)c2)S(=O)(=O)C(c2ccccc2)N1c1cc(Cl)ccc1Cl (stereo not given)
label class: inactive
//
compound: COc1ccc2c(c1)C(=O)C(=O)c1cc(O)c(OC)c(OC)c1-2
label class: active
//
compound: O=C(O)C1CSC2(CCCN(Cc3ccccc3)C2)N1 (stereo not given)
label class: inactive

====

- Test system: HOP-62
- protocol: NCI tumour cell line growth inhibition, 48 h
Active and inactive are the calls of the source. Cut-off read from the data, not from the text of the source: active = GI50 up to about 1.1 µM and inactive = higher.
This listing pairs compounds with measured GI50.
readout type: GI50

compound: COc1cc(C2c3cc4c(cc3OC(N3CCCC3)C2C)OCO4)cc(OC)c1O (stereo not given)
readout type: GI50
observed: 11.6 µM (inactive)
//
compound: CSC(=S)NNC(=O)c1ccncc1
readout type: GI50
observed: 20.8 µM (inactive)
//
compound: Cc1ccc(C(c2c(O)c3ccccc3n(-c3ccccc3)c2=O)c2c(O)c3ccccc3n(-c3ccccc3)c2=O)cc1
readout type: GI50
observed: > 100 µM (inactive)
//
compound: COC1OC(CO)C(O)C(OC(=O)c2cc(O)c(O)c(O)c2)C1OC(=O)c1cc(O)c(O)c(O)c1 (stereo not given)
readout type: GI50
observed: 91 µM (inactive)
//
compound: [N-]=[N+]=NI1OC(C(F)(F)F)(C(F)(F)F)c2ccccc21
readout type: GI50
observed: 15.1 µM (inactive)

====

This listing pairs compounds with measured GI50.
- System: SNB-75
- protocol: NCI tumour cell line growth inhibition, 48 h
Active and inactive are the calls of the source. Rule as the data show it: active = GI50 up to about 1.1 µM and inactive = higher.

compound: [O-]/[N+](=C\c1ccccc1OC(=S)S)c1ccc(Cl)cc1
GI50: > 100 µM (inactive)
--
compound: CC(=O)Oc1c(C)c2c(c3ccccc13)OC(C)(C)C2
GI50: 19 µM (inactive)
--
compound: Oc1ccc2c(O)cc(-c3ccccc3)nc2c1
GI50: 22.1 µM (inactive)
--
compound: Clc1c2ncccc2cc2nn[nH]c12
GI50: 28.5 µM (inactive)
--
compound: CCN1C/C(=C\c2ccc(Cl)cc2)C2=NN(c3ccccc3)C(c3ccc(Cl)cc3)C2C1 (stereo unspecified)
GI50: > 100 µM (inactive)
--
compound: COc1ccc(/C=C/C2=NN(c3cccc(S(=O)(=O)O)c3)C3(C2)SCC(=O)N3c2nc3ccccc3s2)cc1 (stereo unspecified)
GI50: > 100 µM (inactive)
--
compound: C[C@]12CC[C@H]3[C@@H](CCC4=C/C(=N/OCCN5CCCCC5)CC[C@@]43C)[C@@H]1CC[C@@H]2O
GI50: 7.26 µM (inactive)
--
compound: COC(CN(C=O)[C@@H](c1ccc(Cl)cc1)c1cc2ccccc2o1)OC
GI50: 22.9 µM (inactive)
--
compound: CCN(C)c1nc(N(C)CC)c2nc(N(C)CC)nc(N(C)CC)c2n1
GI50: > 100 µM (inactive)
--
compound: [N-]=[N+]=N/C1=C/CCCCC(=O)C1
GI50: > 100 µM (inactive)
--
compound: N#Cc1sc2c(c1O)c(=O)n(-c1ccccc1)c(=S)n2-c1ccccc1
GI50: > 100 µM (inactive)
